test: chemical genetic growth profiling, strain panel (AID 1159580);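 also: tested at 20 µM; growth read once vehicle control cultures reached saturation at 30 °C; 1 = growth at the plate median or of vehicle wells; lower values mean less growth of the strain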; settings: S. cerevisiae deletion strains, growth OD, locus YJL129C, strain trk1
The whole screen tested about 5,500 compounds, of which about 2,000 (36%) were called active. Inconclusive results (about 18%) are left out. Rule as the data show it: active = normalized growth mostly below about 0.91 (no sharp cut-off); inconclusive = no clear call, values can overlap the other calls; inactive = mostly above about 0.92. Some of the results follow.
Labels: 1.0 (active), 0.0 (inactive)

compound	category
O=C1C=CC(=O)c2c(O)c(Cl)c(Cl)c(O)c21	0.0
O=C1C=CC(=O)c2ccccc21	0.0
CC(=O)O[C@@H]1C2CC[C@@H]3C1(C[C@@H](O)[C@@]1(O)[C@@H](C[C@H](O)C1(C)C)[C@]3(C)O)C[C@@]2(C)O (some centres not stated)	0.0
C=CC[C@@H]1/C=C(\C)C[C@H](C)C[C@H](OC)[C@H]2O[C@@](O)(C(=O)C(=O)N3CCCC[C@H]3C(=O)O[C@H](/C(C)=C/[C@@H]3CC[C@@H](O)[C@H](OC)C3)[C@H](C)[C@@H](O)CC1=O)[C@H](C)C[C@@H]2OC	1.0
O=C(O)c1cccnc1C(=O)O	0.0
CCCN(CCC)c1c([N+](=O)[O-])cc(C(F)(F)F)cc1[N+](=O)[O-]	0.0
O=C1NS(=O)(=O)c2ccccc21	0.0
Oc1cccc2cccnc12	1.0
CC1=C(C(=O)O)N2C(=O)[C@@H](NC(=O)[C@@H](N)c3ccc(O)cc3)[C@H]2SC1	0.0
O=C(O)c1cc(=O)c2ccccc2[nH]1	0.0
CC(=O)OC1CCC2(O)CC1(C)CCC1C2CC1(C)C (configuration not stated)	0.0
CC(C)C1CCC(C(=O)N[C@@H](Cc2ccccc2)C(=O)O)CC1 (some centres not stated)	0.0

---

test: chemical genetic growth profiling, strain panel (AID 1159580); settings: S. cerevisiae deletion strains, growth OD, locus YBR229C, strain ROT2
Screen size: about 5,500 compounds; about 2,000 (36%) were called active. Another 18% or so got no clear call; they are omitted. Rule as the data show it: active = normalized growth mostly below about 0.91 (no sharp cut-off); inconclusive = no clear call, values can overlap the other calls; inactive = mostly above about 0.92. The list shows a part of the results.
Labels: label 1 (active), label 0 (inactive)

compound	category
C[N+]1(C)CCCC(OC(=O)C(O)(c2ccccc2)c2ccccc2)C1 (stereo unspecified)	label 0
CC(C)[C@@H]1CC[C@@H](C)C[C@H]1OC(=O)c1ccccc1	label 0
COc1ccccc1C1CCN(c2ncnc3scc(-c4ccccc4)c23)CC1	label 0
CC(C)(C)S(=O)(=O)c1cnc(N)nc1N	label 0
N#Cc1cc(I)c(C#N)c(I)c1	label 1
O=C(O)CC[N+](=O)[O-]	label 0
COc1cc2c(cc1OC)C(C)NCC2 (stereo unspecified)	label 0
C[C@]12[C@H](O)CC3C(CC[C@@H]4C[C@@H](O)CC[C@]34C)[C@@]1(O)CC[C@@H]2C1=CC(=O)OC1 (stereo partly specified)	label 0
COC(=O)C[C@H]1C(C)(C)[C@@H](OC(C)=O)[C@@H]2CC3=C4CC(=O)O[C@@H](c5ccoc5)[C@]4(C)CCC3[C@@]1(C)C2=O (stereo partly specified)	label 0
Cc1cc2c(cc1C)CSC(C)(c1ccc(F)cc1)SC2	label 0
Cc1ccc(O)c(C(CCN(C(C)C)C(C)C)c2ccccc2)c1 (stereo unspecified)	label 0

---

As shown below, each of these molecules has a reported normalized growth value.
experiment: chemical genetic growth profiling, strain panel (AID 1159580); conditions: S. cerevisiae deletion strains, growth OD, locus YPR106W, strain ISR1, active compounds read low
Among all 5,500 compounds or so, about 2,000 (36%) were called active. Another 18% or so got no clear call; they are omitted. This is one part of the list.

molecule	normalized growth
O=C(OCCNc1ccc([N+](=O)[O-])cn1)c1ccc([N+](=O)[O-])o1	0.945
O=C(Nc1ccc(F)cc1)c1cc(Br)ccc1O	0.914
O=[N+]([O-])c1ccc(NCc2ccc(Cl)c(Cl)c2)nc1	0.918
COC(=O)c1cc([N+](=O)[O-])ccc1S(=O)(=O)Cc1ccc(Cl)cc1	0.985
O=C(Nc1cc(Cl)cc(Cl)c1)c1cc(Br)ccc1O	0.971
C=CCC1C(=O)N(S(=O)(=O)c2ccc(Cl)cc2)N=C1CCC (stereo unspecified)	0.988

---

As shown below, each of these compounds has a reported normalized growth value.
experiment: chemical genetic growth profiling, strain panel (AID 1159580);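 also: tested at 20 µM; growth read once vehicle control cultures reached saturation at 30 °C; 1 = growth at the plate median or of vehicle wells; lower values mean less growth of the strain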; conditions: S. cerevisiae deletion strains, growth OD, locus YJL187C, strain SWE1 (second series), active compounds read low
The whole screen tested about 5,500 compounds, of which about 2,000 (36%) were called active. Not shown: some 18% with an inconclusive outcome. Some of the results follow.
measuredProperty: normalized growth

compound	measuredValue
CC(=O)OC[C@@]1(O)C[C@@]23CCC4c5ccoc5CC[C@]4(C)C2CC[C@@H]1C3 (stereo partly drawn)	0.961
Cc1ccc(O)c(C(CCN(C(C)C)C(C)C)c2ccccc2)c1 (stereo not drawn)	1.01
NC(Cc1ccc(Cl)cc1)C(=O)O (stereo not drawn)	0.975

---

assay: chemical genetic growth profiling, strain panel (AID 1159580);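 also: tested at 20 µM; growth read once vehicle control cultures reached saturation at 30 °C; 1 = growth at the plate median or of vehicle wells; lower values mean less growth of the strain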; conditions: S. cerevisiae deletion strains, growth OD, locus YLR370C, strain arc18
About 2,000 (36%) of roughly 5,500 compounds were called active. About 18% were inconclusive and are not listed. No stated cut-off is given here; in the data, active means normalized growth mostly below about 0.91 (no sharp cut-off); inconclusive means no clear call, values can overlap the other calls; inactive means mostly above about 0.92. This is one part of the list.
Labels: class 1 for active, class 0 for inactive

compound	category
CNC(C)(C)Cc1ccccc1	class 0
CC(=O)c1ccc[nH]1	class 0
COC(=O)CC1C(C)(C(=O)c2ccoc2)CC2OCC34C(CC(=O)OC)C5(C)CC36OC3(C)OC1(C(OC(C)=O)C6(OC(C)=O)C5OC(=O)C(C)C)C24O3 (stereo unspecified)	class 0
CC(=O)O[C@H]1CC2CCC3C(CC[C@@]4(C)C3C[C@H]([N+]3(C)CCCCC3)[C@@H]4OC(C)=O)[C@@]2(C)C[C@@H]1N1CCCCC1 (stereo partly specified)	class 0
O=c1c(O)c(-c2ccccc2)oc2ccc3occc3c12	class 1
CCCC(=O)Nc1ccc(OCC(O)CNC(C)C)c(C(C)=O)c1 (stereo unspecified)	class 0
O=c1c(O)c(-c2ccccc2)oc2cc(O)ccc12	class 1
NNCc1ccccc1	class 0
O=C1c2ccccc2C(=O)c2ccccc21	class 0
O=c1c(O)c(-c2ccc(O)cc2)oc2ccccc12	class 1
CC12CCC(OC(=O)c3ccccc3)CC1CCc1ccccc12 (stereo unspecified)	class 0

---

assay: chemical genetic growth profiling, strain panel (AID 1159580);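 also: tested at 20 µM; growth read once vehicle control cultures reached saturation at 30 °C; 1 = growth at the plate median or of vehicle wells; lower values mean less growth of the strain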; conditions: S. cerevisiae deletion strains, growth OD, locus YPR135W, strain CTF4, active compounds read low
Among all 5,500 compounds or so, about 2,000 (36%) were called active. Another 18% or so got no clear call; they are omitted. The list shows a part of the results.
measuredProperty: normalized growth

compound	measuredProperty	measuredValue
FC(F)(F)c1cc(-c2ccc(Cl)cc2)nc2cc(C3CC3)nn12	normalized growth	1.15
O=C(O)c1cccc([N+](=O)[O-])c1C(=O)Nc1ccc(F)cc1	normalized growth	1.04
Cc1cc2c(cc1C)CSC(C)(c1ccc(F)cc1)SC2	normalized growth	0.946
Cc1cc(NS(=O)(=O)c2ccc(NC(=O)c3ccccc3)cc2)no1	normalized growth	0.991
Cc1cccc(NC(=O)c2ccccc2)c1	normalized growth	0.798
COC(=O)c1cccc([N+](=O)[O-])c1-c1c(C(=O)OC)cccc1[N+](=O)[O-]	normalized growth	1.06
CC(C)(C)c1cc(C(=O)NN)n[nH]1	normalized growth	1.21
FC(F)(F)c1cc(-c2ccco2)nc2cc(-c3ccco3)nn12	normalized growth	0.594
Cc1ccc(S(=O)(=O)N2CCC(C(c3ccccc3)c3ccccc3)CC2)cc1	normalized growth	0.986
N=C(N)SCc1c(F)cccc1Cl	normalized growth	0.896
Nc1cccc2c1C(=O)c1ccccc1-2	normalized growth	0.167
Cc1cc(Oc2c([N+](=O)[O-])cc(C(F)(F)F)cc2[N+](=O)[O-])c2c(Cl)ccc(C)c2n1	normalized growth	0.451
COc1ccccc1N1CC(C)(C)C(=O)N(C(=O)c2c(F)cccc2Cl)C1=S	normalized growth	0.985
CCOC(=O)c1ccc(NC(=S)N2CCOCC2)cc1	normalized growth	0.972
COc1cc(C2Nc3cccc4cccc(c34)N2)cc(OC)c1OC	normalized growth	0.952
Nc1ccccc1C(=O)NCCc1ccc(Cl)cc1	normalized growth	0.767
O=C1CSC(c2cccnc2)N1c1ccc(Cl)cc1 (centres undefined)	normalized growth	1.05
COc1c([N+](=O)[O-])cc(C(F)(F)F)cc1[N+](=O)[O-]	normalized growth	0.902
CCCc1ccc(/C(C)=N\O)cc1	normalized growth	0.518
N/C(=N/O)c1cnccc1C(F)(F)F	normalized growth	1.01
Cc1ccc(S(=O)(=O)N2CCCCCC2)cc1	normalized growth	0.843
O=C1c2ccccc2C(=O)N1CNc1cccc(Cl)c1	normalized growth	0.894
CCOC(=O)c1ccc(N2CCOCC2)c(N=Cc2cc(Cl)ccc2O)c1	normalized growth	0.516
O=C(Nc1cc(-c2ccccc2)[nH]n1)c1ccccc1	normalized growth	0.488
